- SYSTEM TESTED: 14-3-3σ/C-RAF259 (Homo sapiens, UniProt P31947)
- METHOD NOTES: Intact mass spectrometry assay with C-RAF259 phospho-peptide
- Type: binding
- Parameters: full-length for mass spectrometry and fluorescence anisotropy assays; made in house; host or cells: E. coli Rosetta 2(DE3)pLysS (14-3-3σ); peptides from Elim Biopharmaceuticals
- SETTINGS: 1 μM compound, 100 nM 14-3-3σ, 18 µM peptide, 8 h
MEASUREMENT LABEL: % bound, C-RAF259 (11mer), 8h (%)

Answered cases to consult:
| COMPOUND | SYSTEM TESTED | ENDPOINT UNIT | % bound, C-RAF259 (11mer), 8h |
| --- | --- | --- | --- |
| O=C(CCl)N1CC2(CC(NS(=O)(=O)c3ccc(Br)c(F)c3)C2)C1 [Compound 64] | 14-3-3σ/C-RAF259 (Homo sapiens, UniProt P31947) | % | 53.6 |
| O=C(CCl)N1CC2CCC1CC2NS(=O)(=O)c1ccc(Br)c(F)c1 (centres unmarked) [Compound 61] | 14-3-3σ/C-RAF259 (Homo sapiens, UniProt P31947) | % | 68 |
| O=C(CCl)N1CC[C@]2(CCN(S(=O)(=O)c3ccc(Br)c(F)c3)C2)C1 [Compound 89] | 14-3-3σ/C-RAF259 (Homo sapiens, UniProt P31947) | % | 65.8 |

(1) O=C(CCl)NCCCC1CCN(S(=O)(=O)c2ccc(Cl)cc2)CC1 [Compound 13]
(2) CC1(CNC(=O)CCl)CCN(S(=O)(=O)c2ccc(Br)c(F)c2)CC1 [Compound 46]
Returns the identifier with the smallest measured % bound, C-RAF259 (11mer), 8h among 1 and 2 . # respond with the chosen item's label
1
(1: 2.9%, 2: 39.4%)

---

Recorded pEC50 by entry
- SYSTEM TESTED: 14-3-3σ/C-RAF259 (Homo sapiens)
- METHOD NOTES: Fluorescence anisotropy (FA) compound titration
- Format: binding
- SETTINGS: 10 nM C-RAF259-FAM 10-mer, 5 μΜ 14-3-3σ, overnight; read-out: Compound titrations EC50 value C-RAF259
pEC50: −log10 of the molar value.

Answered cases to consult:
| MOLECULE | REPORTED VALUE |
| --- | --- |
| O=C(CCl)NCC1CCN(S(=O)(=O)c2ccc(F)cc2F)CC1 [Compound 27] | < 3.82 |
| C=C(F)C(=O)N1CC2(CCN(S(=O)(=O)c3ccc(Br)c(F)c3)CC2(F)F)C1 [Compound 75] | < 3.00 |
| O=C(CCl)NCC1CCN(S(=O)(=O)Cc2cccc(F)c2)CC1 [Compound 8] | < 3.00 |
| O=C(CCl)NCC1CCN(S(=O)(=O)Cc2ccc(Cl)cc2)CC1 [Compound 9] | < 3.00 |
| N#Cc1ccc(S(=O)(=O)N2CCC(CNC(=O)CCl)CC2)cc1 [Compound 20] | < 3.82 |

Find the recorded pEC50 belonging to O=C(CCl)NCCCC1CCN(S(=O)(=O)c2ccc(Cl)cc2)CC1 [Compound 13] and report it.
< 3.00

---

- SYSTEM TESTED: 14-3-3σ/C-RAF259 (Homo sapiens, UniProt P31947)
- METHOD NOTES: Intact mass spectrometry assay with C-RAF259 phospho-peptide
- Format: binding
- Set-up: full-length for mass spectrometry and fluorescence anisotropy assays; made in house; host or cells: E. coli Rosetta 2(DE3)pLysS (14-3-3σ); peptides from Elim Biopharmaceuticals
- SETTINGS: 1 μM compound, 100 nM 14-3-3σ, 18 µM peptide, 24 h
MEASUREMENT LABEL: % bound, C-RAF259 (11mer), 24h (%)

Answered cases to consult:
| MOLECULE | % bound, C-RAF259 (11mer), 24h / % |
| --- | --- |
| O=C(CCl)NCC1CCN(S(=O)(=O)c2ccc(F)cc2)CC1 | 50.3 |
| O=C(CCl)NCC1CCN(S(=O)(=O)c2ccc(F)cc2F)CC1 | 50.3 |
| COc1ccc(S(=O)(=O)N2CCC(CNC(=O)CCl)CC2)cc1F | 50.3 |

(a) O=C(CCl)NCC1CCN(S(=O)(=O)c2ccc(OC(F)(F)F)cc2)CC1
(b) O=C(CCl)NCC1CCN(S(=O)(=O)c2cccc(F)c2)CC1
// which entry has the larger % bound, C-RAF259 (11mer), 24h value, a or b ? # respond with the chosen item's label
a

---

- SYSTEM TESTED: 14-3-3σ/C-RAF259 (Homo sapiens, UniProt P31947)
- METHOD NOTES: Fluorescence anisotropy (FA) compound titration
- Format: binding
- SETTINGS: 10 nM C-RAF259-FAM 10-mer, 5 μΜ 14-3-3σ, overnight; read-out: Compound titrations EC50 value C-RAF259
pEC50: −log10 of the molar value.
MEASUREMENT LABEL: pEC50

Answered cases to consult:
| COMPOUND | pEC50 |
| --- | --- |
| O=C(CCl)NC1CC2(CCN(S(=O)(=O)c3ccc(Br)c(F)c3)CC2)C1 | < 3.00 |
| O=C(CCl)NCC1CCN(S(=O)(=O)c2cccc(F)c2)CC1 | < 3.82 |
| O=C(CCl)NCC1CCN(S(=O)(=O)Cc2ccccc2)CC1 | < 3.00 |
| O=C(C(Cl)Cl)N1CC2(CCN(S(=O)(=O)c3ccc(Br)c(F)c3)CC2(F)F)C1 | < 3.00 |
| O=C(CCl)NCC1CCN(S(=O)(=O)C2CC3(C2)CC(F)(F)C3)CC1 | < 3.00 |
| O=C(CCl)NCc1ccc(NS(=O)(=O)c2ccc(Br)c(F)c2)cc1 | < 3.00 |

In the following, a different compound is considered.
Find the recorded pEC50 belonging to O=C(CCl)NCC1CCN(S(=O)(=O)C2CCC3(CC2)CC3(F)F)CC1 (stereo not shown) and report it.
< 3.00

---

- SYSTEM TESTED: 14-3-3σ (Homo sapiens)
- METHOD NOTES: Intact mass spectrometry assay, apo (no peptide)
- Format: binding
- Parameters: full-length for mass spectrometry and fluorescence anisotropy assays; made in house; host or cells: E. coli Rosetta 2(DE3)pLysS, pPROEX HTb vector
- SETTINGS: 1 μM compound, 100 nM 14-3-3σ, 8 h
MEASUREMENT LABEL: % bound, APO, 8h (%)

Answered cases to consult:
| SMILES ENTRY | MEASUREMENT LABEL | ENDPOINT UNIT | REPORTED VALUE |
| --- | --- | --- | --- |
| O=C(CCl)NCC1CCN(S(=O)(=O)c2ccc(F)c(F)c2)CC1 | % bound, APO, 8h | % | 4.7 |
| O=C(CCl)N1CC[C@]2(CCN(S(=O)(=O)c3ccc(Br)c(F)c3)C2)C1 | % bound, APO, 8h | % | 14.5 |
| O=C(C(Cl)Cl)N1CC2(CCN(S(=O)(=O)c3ccc(Br)c(F)c3)CC2(F)F)C1 | % bound, APO, 8h | % | 0 |
| O=C(CCl)NC1CC2(CCN(S(=O)(=O)c3ccc(Br)c(F)c3)CC2)C1 | % bound, APO, 8h | % | 0.9 |
| O=C(CCl)NCC1CCN(S(=O)(=O)c2ccc3c(c2)OCO3)CC1 | % bound, APO, 8h | % | 0 |

(a) O=C(CCl)NCC1CCN(S(=O)(=O)c2ccc(OC(F)(F)F)cc2)CC1
(b) O=C(CCl)NCC1CCN(S(=O)(=O)c2ccccc2F)CC1
(c) O=C(CCl)NCC1CCN(S(=O)(=O)Cc2cccc(F)c2)CC1
Arrange the 3 molecules from largest to smallest % bound, APO, 8h. State the ranking by listing the labels in the requested order.
b, a, c

---

- SYSTEM TESTED: 14-3-3σ (Homo sapiens)
- Sequence (P31947 1-248): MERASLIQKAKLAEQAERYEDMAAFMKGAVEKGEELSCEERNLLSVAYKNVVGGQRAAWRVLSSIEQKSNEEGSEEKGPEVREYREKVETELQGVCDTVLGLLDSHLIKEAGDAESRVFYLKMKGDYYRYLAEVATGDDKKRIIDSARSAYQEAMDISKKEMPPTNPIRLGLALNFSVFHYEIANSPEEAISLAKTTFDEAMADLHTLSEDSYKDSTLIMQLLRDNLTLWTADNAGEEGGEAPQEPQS
- METHOD NOTES: Intact mass spectrometry assay, apo (no peptide)
- Format: binding
- Set-up: full-length for mass spectrometry and fluorescence anisotropy assays; made in house; host or cells: E. coli Rosetta 2(DE3)pLysS, pPROEX HTb vector
- SETTINGS: 1 μM compound, 100 nM 14-3-3σ, 1 h
MEASUREMENT LABEL: % bound, APO, 1h (%)

| MOLECULE | SYSTEM TESTED | REPORTED VALUE |
| --- | --- | --- |
| O=C(CCl)NCC1CCN(S(=O)(=O)c2cccc(F)c2)CC1 [Compound 16] | 14-3-3σ (Homo sapiens) | 0 |
| O=C(CCl)NCC1CCN(S(=O)(=O)c2cc(F)c(Br)cc2F)CC1 [Compound 39] | 14-3-3σ (Homo sapiens) | 0 |
| O=C(CCl)NCC1CCN(S(=O)(=O)Cc2ccc(Cl)cc2)CC1 [Compound 9] | 14-3-3σ (Homo sapiens) | 0 |

(a) O=C(CCl)NCC1CCN(S(=O)(=O)c2cccc(C(F)(F)F)c2)CC1 [Compound 17]
(b) O=C(CCl)NCC1CCN(S(=O)(=O)c2ccccc2)CC1 [Compound 10]
(c) O=C(CCl)NCC1CCN(S(=O)(=O)c2ccccc2F)CC1 [Compound 15]
Ascending by % bound, APO, 1h, please. State the ranking by listing the labels in the requested order.
a, c, b
(a: 0%, c: 0.5%, b: 4.7%)
